# TESTED TARGET: Phosphatidylinositol 4,5-bisphosphate 3-kinase catalytic subunit alpha isoform (Homo sapiens, UniProt P42336)
# Sequence (P42336 whole entry, canonical isoform): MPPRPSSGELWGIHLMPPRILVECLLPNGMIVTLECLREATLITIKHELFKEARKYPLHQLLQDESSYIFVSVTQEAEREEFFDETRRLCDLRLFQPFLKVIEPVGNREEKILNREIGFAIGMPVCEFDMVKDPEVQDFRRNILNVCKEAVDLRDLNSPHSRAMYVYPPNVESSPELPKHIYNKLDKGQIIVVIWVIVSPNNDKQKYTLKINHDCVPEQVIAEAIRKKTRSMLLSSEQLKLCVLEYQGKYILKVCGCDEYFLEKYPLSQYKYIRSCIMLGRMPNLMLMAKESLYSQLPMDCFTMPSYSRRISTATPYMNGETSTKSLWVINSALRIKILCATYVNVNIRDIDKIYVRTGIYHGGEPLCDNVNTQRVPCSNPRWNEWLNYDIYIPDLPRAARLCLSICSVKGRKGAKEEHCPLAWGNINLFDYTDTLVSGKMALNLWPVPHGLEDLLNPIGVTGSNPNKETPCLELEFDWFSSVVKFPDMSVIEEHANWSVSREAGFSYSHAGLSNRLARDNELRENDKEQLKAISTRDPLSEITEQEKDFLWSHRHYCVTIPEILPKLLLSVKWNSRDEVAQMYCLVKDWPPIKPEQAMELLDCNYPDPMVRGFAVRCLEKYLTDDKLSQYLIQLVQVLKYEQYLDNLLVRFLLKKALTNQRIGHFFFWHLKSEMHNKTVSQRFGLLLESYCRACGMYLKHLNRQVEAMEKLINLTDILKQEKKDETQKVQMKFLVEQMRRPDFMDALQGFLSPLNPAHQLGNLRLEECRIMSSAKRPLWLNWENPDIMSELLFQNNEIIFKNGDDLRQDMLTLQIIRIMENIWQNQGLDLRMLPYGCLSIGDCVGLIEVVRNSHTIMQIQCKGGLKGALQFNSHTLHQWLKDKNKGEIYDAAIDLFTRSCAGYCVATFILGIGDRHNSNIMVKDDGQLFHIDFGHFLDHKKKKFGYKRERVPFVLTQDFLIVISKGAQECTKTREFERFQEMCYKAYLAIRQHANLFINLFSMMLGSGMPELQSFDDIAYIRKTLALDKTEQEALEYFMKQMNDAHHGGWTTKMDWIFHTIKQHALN
# MEASUREMENT DESCRIPTION: Inhibition of PI3Kalpha
Parameter IC50: see the listing below.
MEASUREMENT KIND: IC50 (µM)

INSERT INTO assay_data (mol_smiles, measured_result) VALUES
  ('Cc1nc(N/C(N)=N/C(=O)c2ccccc2N)nc2ccccc12', 23),
  ('CCOc1ccc2nc3cc(/N=C/c4ccco4)ccc3c(N)c2c1', 40),
  ('Cc1cccc(NC(=O)c2ccc(Cn3cnc4ccccc4c3=O)o2)n1', 28),
  ('Cc1ccc(OCC(=O)Nc2ccc(-c3nnc(-c4ccco4)o3)cc2)cc1', 40);
